B1: library; numbered along this chain (parent)
chain: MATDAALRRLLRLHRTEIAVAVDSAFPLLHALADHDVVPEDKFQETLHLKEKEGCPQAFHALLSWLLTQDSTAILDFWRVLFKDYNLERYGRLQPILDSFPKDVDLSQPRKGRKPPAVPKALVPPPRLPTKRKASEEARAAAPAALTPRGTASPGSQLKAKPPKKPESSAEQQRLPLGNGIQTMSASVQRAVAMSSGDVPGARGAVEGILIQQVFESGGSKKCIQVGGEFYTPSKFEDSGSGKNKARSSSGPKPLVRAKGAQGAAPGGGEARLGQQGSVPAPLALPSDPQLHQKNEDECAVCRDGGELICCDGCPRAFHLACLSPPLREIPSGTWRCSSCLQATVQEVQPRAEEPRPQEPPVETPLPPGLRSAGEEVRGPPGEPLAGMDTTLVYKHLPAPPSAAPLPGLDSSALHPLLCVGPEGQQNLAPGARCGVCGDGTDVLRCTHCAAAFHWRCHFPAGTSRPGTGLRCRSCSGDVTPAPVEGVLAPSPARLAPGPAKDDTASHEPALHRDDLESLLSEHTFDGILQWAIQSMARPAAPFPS

- Variants of: B1
- test: AIRE transcriptional activation functional score (insulin promoter-GFP; nonsense median 0, synonymous median 1) (normalised score); higher = higher AIRE activity (more reporter activation)
- run-parameters: with insulin promoter-GFP reporter in HEK293
Everything with AIRE transcriptional activation functional score lower than 0.7 is NOT MET; everything else, including exactly 0.7, is MET.

// known answers, use as guide
1. P56W NOT MET
2. A19W NOT MET
3. S338F MET

Confirm if AIRE transcriptional activation functional score reported for the variant G306A is 0.7 or above.
MET

Confirm if AIRE transcriptional activation functional score reported for the variant D312F is 0.7 or above.
MET

Confirm if AIRE transcriptional activation functional score reported for the variant L406F is 0.7 or above.
MET

Confirm if AIRE transcriptional activation functional score reported for the variant Y85F is 0.7 or above.
MET

Confirm if AIRE transcriptional activation functional score reported for the variant F100G is 0.7 or above.
NOT MET

Confirm if AIRE transcriptional activation functional score reported for the variant S491G is 0.7 or above.
MET

Confirm if AIRE transcriptional activation functional score reported for the variant Y85H is 0.7 or above.
NOT MET

Confirm if AIRE transcriptional activation functional score reported for the variant D41G is 0.7 or above.
NOT MET

Confirm if AIRE transcriptional activation functional score reported for the variant P280H is 0.7 or above.
MET

Confirm if AIRE transcriptional activation functional score reported for the variant I96M is 0.7 or above.
NOT MET
